- System: HCC 2998
- ASSAY: NCI tumour cell line growth inhibition, 48 h
Activity calls are given as the source filed them. No stated cut-off is given here; in the data, active = GI50 up to about 1.1 µM and inactive = higher.
Possible outcomes: 1.0 for active, 0.0 for inactive

INSERT INTO assay_data (compound, assigned_class) VALUES
  ('O=C(CC(=O)C1CCOC1=O)C(=O)Nc1ccc(Cl)cc1 (stereo not given)', 0.0),
  ('O=C(Sc1n[nH]c(=O)[nH]c1=O)c1cccc2nc3ccccc3nc12', 0.0),
  ('C=C1C(=O)O[C@@H]2O[C@@]3(C)CC[C@H]4[C@H](C)CC[C@@H]1[C@@]24O3', 0.0),
  ('CC(C)(C)OC(=O)NC(CS(=O)(=O)O)C(=O)O (stereo not given)', 0.0),
  ('COc1cccc(-c2cc(O)c3cc4c(cc3n2)OCO4)c1', 1.0);

###

- System: OVCAR-4
- ASSAY: NCI tumour cell line growth inhibition, 48 h
The source made the active and inactive calls. Cut-off read from the data, not from the text of the source: active = GI50 up to about 1.1 µM and inactive = higher.
Possible outcomes: active, inactive

INSERT INTO assay_data (molecule, assigned_class) VALUES
  ('Cc1nc2ccc(F)cc2c(Cl)c1CCCl', 'inactive'),
  ('CC1(C)CCCC2(C)C3=C(CCC12)C(=O)OC3 (configuration not stated)', 'inactive'),
  ('CCOC(=O)/C(C#N)=C\Sc1ccccc1', 'inactive'),
  ('O=C(O)/C=C/c1ccc(O)c(O)c1', 'inactive'),
  ('CC(C)(C)OC(=O)NC(CS(=O)(=O)O)C(=O)O (configuration not stated)', 'inactive'),
  ('C[C@]12CC[C@@H]3c4ccc(O)cc4CC[C@H]3[C@@H]1CC[C@@H]2OC(=O)CCc1ccccc1', 'inactive'),
  ('CN(C)c1ccc(/C=C/C(=O)CC(=O)/C=C/c2ccc(N(C)C)cc2)cc1', 'inactive'),
  ('OCc1ccccc1O[C@H]1O[C@H](CO)[C@@H](O)[C@H](O)[C@H]1O', 'inactive'),
  ('COc1cc(/C=C2\CN(C)CC3=C2N=C(S)NC3c2cc(OC)c(OC)c(OC)c2)cc(OC)c1OC (configuration not stated)', 'inactive'),
  ('COc1cc2c(/C=C3/C(=O)N(C)c4ccc(O)cc43)c(Cl)[nH]c2cc1C', 'inactive'),
  ('C=C(C)CN(CC#N)CC(=C)C', 'inactive'),
  ('COC(=O)[C@@](C)(COC(=O)C(C)(C)C)NC(=O)OC(C)(C)C', 'inactive'),
  ('CC#CC(OCC)(OCC)OCC', 'inactive'),
  ('C/C=C(/C)C(=O)O[C@H]1[C@H]2[C@@H]([C@@H](OC(C)=O)[C@H](C)C(=O)[C@@]34C[C@@H](C)C(=O)[C@]3(/C=C(\C)[C@H]1OC(C)=O)O4)C2(C)C', 'inactive'),
  ('CN1CCN(c2ccc3nc(C4=C(O)C(=O)[C@@H]5C(=C4O)N=C(CO)N5C)[nH]c3n2)CC1', 'inactive'),
  ('O=c1c(-c2ccccc2)c(SCCN2CCOCC2)n(-c2ccccc2)c(=S)n1-c1ccccc1', 'inactive'),
  ('N#C/C(=C\c1cn(Cc2ccccc2)c2ccccc12)c1nn(-c2ccccc2)c(N)c1C#N', 'inactive'),
  ('CCCCNC(=O)c1cc(S(=O)(=O)n2ccnc2O)c(SC)cc1Cl', 'inactive'),
  ('C1CSCCSCCSCCSC1', 'inactive'),
  ('C[Si](C)(C)/C(Br)=C\CCN1C(=O)CCC1=O', 'inactive'),
  ('COC1(OC)c2no[n+]([O-])c2CCC1O (configuration not stated)', 'inactive'),
  ('O=C(O)c1ccc(O)c(/N=N/c2cc(S(=O)(=O)O)c3ccccc3c2O)c1', 'inactive'),
  ('CCCCNS(=O)(=O)c1ccc(-c2ccc3c(c2)-c2ccc(S(=O)(=O)NCCCC)cc2S3(=O)=O)cc1', 'inactive'),
  ('COc1nc(O)nc2c1C(c1ccc([N+](=O)[O-])cc1)c1c(OC)nc(O)nc1O2', 'inactive'),
  ('CCOC(=O)NC(=O)c1cn(C2OC(CO)C(O)C2O)c(=O)[nH]c1=O (configuration not stated)', 'inactive'),
  ('N#CC(C(=N/O)/C(=N\O)C(C#N)c1ccccc1)c1ccccc1 (configuration not stated)', 'inactive'),
  ('c1ccc2c(c1)CC1c3[nH]c4ccccc4c3CCN21 (configuration not stated)', 'inactive'),
  ('Cc1nnc2n1-c1ccccc1-c1[nH]c3ccccc3c1C2', 'inactive'),
  ('O=C(OCCN=C1c2ccccc2CCc2ccccc21)c1cc([N+](=O)[O-])cc([N+](=O)[O-])c1', 'inactive'),
  ('CCC1(O)C(=O)OCc2c1cc1n(c2=O)Cc2cc3cc(N)ccc3nc2-1 (configuration not stated)', 'active'),
  ('Cc1cc2c(C=O)n[nH]c2c(C#N)c1C', 'inactive'),
  ('COc1cc(C(=O)N(C(=S)OC23CC4CC(CC(C4)C2)C3)c2ccccc2)cc(OC)c1OC', 'inactive'),
  ('CC(c1ccccc1)C(O)S(=O)(=O)O (configuration not stated)', 'inactive'),
  ('c1ccc2c(c1)c1c(n2CCOCCN2CCOCC2)CCCC1', 'inactive'),
  ('O=C(n1c(=O)n(-c2ccc(Cl)cc2)c(=O)n1C(=O)C(Cl)(Cl)Cl)C(Cl)(Cl)Cl', 'inactive'),
  ('C/C=C/C1(NS(=O)(=O)c2ccc(C)cc2)CCC(C(C)(C)C)CC1 (configuration not stated)', 'inactive'),
  ('COc1cc(/C=C2\[C@H]3c4c(c(OC)c(C)c(OC)c4OC)C[C@@H](C(=O)N2Cc2ccccc2)N3C(=O)OC(C)C)c(OC)c(C)c1OC', 'inactive'),
  ('O=P1(Cc2ccccc2)c2ccccc2-c2ccccc21', 'inactive'),
  ('CC1(C)CN(CC(=O)O)CC(Cc2ccc(OCC(=O)O)cc2)N(CC(=O)O)CC(C)(C)SS1 (configuration not stated)', 'inactive'),
  ('O=C(O)c1cc2c(s1)C(=O)c1sccc1C2=O', 'inactive'),
  ('CCOC(=O)NC1C2CC(=O)OC(O2)C1OC(C)=O (configuration not stated)', 'inactive'),
  ('CC(=O)Oc1cccc2c1C(=O)CCCC2', 'inactive');
